Target: T1, Ax1 protein, extracellular domain (human, UniProt P30530 26-451)
T1 construct: extracellular domain; also called Axl; Ark
T1 sequence (looked up): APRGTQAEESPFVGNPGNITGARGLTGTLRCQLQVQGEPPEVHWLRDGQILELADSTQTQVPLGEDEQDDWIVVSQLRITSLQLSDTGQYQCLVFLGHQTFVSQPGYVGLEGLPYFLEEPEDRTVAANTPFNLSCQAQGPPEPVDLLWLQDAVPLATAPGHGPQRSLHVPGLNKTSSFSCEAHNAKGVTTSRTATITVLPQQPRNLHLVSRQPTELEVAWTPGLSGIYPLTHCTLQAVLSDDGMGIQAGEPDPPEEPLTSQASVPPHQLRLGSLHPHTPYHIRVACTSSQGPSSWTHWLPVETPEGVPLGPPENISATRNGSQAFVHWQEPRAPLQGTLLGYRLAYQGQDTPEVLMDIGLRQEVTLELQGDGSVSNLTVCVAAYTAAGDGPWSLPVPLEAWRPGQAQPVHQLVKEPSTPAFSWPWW
Experiment: ELISA, mutant diluted 1:9
PROPERTY_MEASURED: Affinity ELISA CPE mutant ratio (1:9, pH 6.0/7.4)
Respond using a number only.

For orientation, consider the following solved cases.
binder="LC-F092D (antibody, V domains shown, CPE single point mutant) VH: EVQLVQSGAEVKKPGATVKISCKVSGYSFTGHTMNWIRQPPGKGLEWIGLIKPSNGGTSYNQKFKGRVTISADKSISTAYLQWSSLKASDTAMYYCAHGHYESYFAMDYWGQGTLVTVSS VL: DIQMTQSPSSLSASVGDRVTITCKASQDVSSAVAWYQQKPGQAPRLLIYWASTRHTGVPSRFSGSGSGTEFTLTISSLQPDDFATYYCQEHDSTPLTFGQGTKVEIK" experimental_result=2.94
binder="LC-V029W (antibody, V domains shown, CPE single point mutant) VH: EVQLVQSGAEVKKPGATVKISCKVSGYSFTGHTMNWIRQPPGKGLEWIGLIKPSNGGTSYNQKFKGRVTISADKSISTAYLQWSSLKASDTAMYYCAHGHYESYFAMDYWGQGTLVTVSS VL: DIQMTQSPSSLSASVGDRVTITCKASQDWSSAVAWYQQKPGQAPRLLIYWASTRHTGVPSRFSGSGSGTEFTLTISSLQPDDFATYYCQEHFSTPLTFGQGTKVEIK" experimental_result=2.35
binder="HC-F105S (antibody, V domains shown, CPE single point mutant) VH: EVQLVQSGAEVKKPGATVKISCKVSGYSFTGHTMNWIRQPPGKGLEWIGLIKPSNGGTSYNQKFKGRVTISADKSISTAYLQWSSLKASDTAMYYCAHGHYESYSAMDYWGQGTLVTVSS VL: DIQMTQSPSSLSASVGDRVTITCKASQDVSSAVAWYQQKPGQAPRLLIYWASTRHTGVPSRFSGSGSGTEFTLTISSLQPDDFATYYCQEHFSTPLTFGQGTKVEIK" experimental_result=4.54
binder="LC-F092N (antibody, V domains shown, CPE single point mutant) VH: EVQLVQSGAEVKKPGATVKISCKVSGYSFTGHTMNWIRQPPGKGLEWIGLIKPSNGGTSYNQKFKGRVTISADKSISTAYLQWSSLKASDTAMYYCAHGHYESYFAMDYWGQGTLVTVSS VL: DIQMTQSPSSLSASVGDRVTITCKASQDVSSAVAWYQQKPGQAPRLLIYWASTRHTGVPSRFSGSGSGTEFTLTISSLQPDDFATYYCQEHNSTPLTFGQGTKVEIK" experimental_result=2
binder="HC-B102F (antibody, V domains shown, CPE single point mutant; printed B102, read as E102 (other rows print HC-E102x)) VH: EVQLVQSGAEVKKPGATVKISCKVSGYSFTGHTMNWIRQPPGKGLEWIGLIKPSNGGTSYNQKFKGRVTISADKSISTAYLQWSSLKASDTAMYYCAHGHYFSYFAMDYWGQGTLVTVSS VL: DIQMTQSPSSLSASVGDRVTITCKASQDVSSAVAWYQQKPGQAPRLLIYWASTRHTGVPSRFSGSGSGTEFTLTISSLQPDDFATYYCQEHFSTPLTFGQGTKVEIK" experimental_result=1.36

What value of Affinity ELISA CPE mutant ratio (1:9, pH 6.0/7.4) has been reported for the following binder? HC-T033I (antibody, V domains shown, CPE single point mutant) VH: EVQLVQSGAEVKKPGATVKISCKVSGYSFTGHIMNWIRQPPGKGLEWIGLIKPSNGGTSYNQKFKGRVTISADKSISTAYLQWSSLKASDTAMYYCAHGHYESYFAMDYWGQGTLVTVSS VL: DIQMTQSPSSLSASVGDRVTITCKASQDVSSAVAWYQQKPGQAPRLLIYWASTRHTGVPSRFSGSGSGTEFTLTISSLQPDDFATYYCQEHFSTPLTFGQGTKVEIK 1

# iterate: HC-H100R (antibody, V domains shown, CPE single point mutant) VH: EVQLVQSGAEVKKPGATVKISCKVSGYSFTGHTMNWIRQPPGKGLEWIGLIKPSNGGTSYNQKFKGRVTISADKSISTAYLQWSSLKASDTAMYYCAHGRYESYFAMDYWGQGTLVTVSS VL: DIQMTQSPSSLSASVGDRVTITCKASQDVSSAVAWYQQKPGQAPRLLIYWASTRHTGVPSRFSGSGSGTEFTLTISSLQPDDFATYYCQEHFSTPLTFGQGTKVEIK 2.51
